# System: Saccharomyces cerevisiae;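 also: PSI is a weighted mean of sequencing reads over stability bins, variants kept only with over 10 reads, mCherry proximal and sfGFP distal, peptide attached via GGGS linker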
# experimental_protocol: protein stability index of tFT-peptide fusion (C-terminal peptide) (PSI (0-1 scale)); higher = more stable (slower turnover)
# stated_conditions: genetic background: wild type; temperature: 30 C
Measured protein stability index, listed per entry for reference.
Would you mind answering with just the numeric figure?

Recorded protein stability index, per entry:
{"columns": ["entry_sequence", "quantity_kind", "val"],
 "data": [
  ["LGCFGSSFVFCC", "protein stability index", 0.23],
  ["VGGGVGGRDGAS", "protein stability index", 0.659],
  ["FLRGRTPLTAGD", "protein stability index", 0.582],
  ["PFSLSLPPPPLP", "protein stability index", 0.73],
  ["IGFPFRIYRFAF", "protein stability index", 0.563],
  ["GVGGRGVGAGGG", "protein stability index", 0.662],
  ["SPFLINTIFDIT", "protein stability index", 0.606],
  ["NHKTIRIQNKSI", "protein stability index", 0.302]
]}

Which protein stability index value is on record for ESVGLGDRRVCS ?
0.65

Which protein stability index value is on record for WGAKGLESIHVM ?
0.6

Attribution: the supplement of paper PMC10724198
